Measured abundance fitness accompanies every entry in the list below.
B1: POU domain, class 3, transcription factor 3, residues 408 to 463; numbered along this chain, P20264 (parent)
chain: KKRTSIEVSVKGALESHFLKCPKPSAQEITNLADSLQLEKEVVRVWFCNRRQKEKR

Variants of: B1
method description: abundance fitness (aPCA) (normalised: wild type 0, dead -1); higher = more abundant; growth selection in yeast, the domain comes from the species named
study conditions: Homo sapiens
Would you mind answering with just the numeric figure?

Example variants with recorded abundance fitness:
{"sequence variant": "A26G", "abundance fitness": -0.086}
{"sequence variant": "V8I", "abundance fitness": 0.1}
{"sequence variant": "C21R", "abundance fitness": -0.501}
{"sequence variant": "R56N", "abundance fitness": -0.143}
{"sequence variant": "E28N", "abundance fitness": -0.455}

What the record says about I29L : abundance fitness is -0.038

What the record says about K2R : abundance fitness is -0.086

What the record says about E7S : abundance fitness is 0.144

Measured values drawn from the Human Domainome abundance scans (Beltran et al. 2025) for this set.
